assay: Cmax in mouse at 30 mg/kg, po; type: ADME, organism-based; set-up: dose 30 mg/kg, route oral; settings: in vivo
Recorded endpoint: Cmax (ng/mL)
State the answer as a number, implicitly in ng/mL.

{"Smiles input": "Oc1ccc2cc(CNCCc3ccc(Br)cc3)c(-c3ccsc3)nc2c1", "Recorded endpoint": "Cmax", "Unit annotation": "ng/mL", "Test result": 370}

Look up Cmax: COc1cc2nc(-c3ccsc3)c(CNCCc3ccc(Br)cc3)cc2cc1O
500

====

assay: Volume of distribution in mouse at 3 mg/kg, iv; format: ADME, organism-based; parameters: dose 3 mg/kg, route intravenous; conditions: in vivo
Recorded endpoint: Vd

{"Smiles input": "COc1cc2nc(-c3ccsc3)c(CNCCc3ccc(Br)cc3)cc2cc1O", "Recorded endpoint": "Vd", "Test result": "1.4 L/kg"}

Now examine the next entry.
Look up Vd: Oc1ccc2cc(CNCCc3ccc(Br)cc3)c(-c3ccsc3)nc2c1
2.4 L/kg
